The origin of these recorded values is patent US20260083692A1.

Target sequence: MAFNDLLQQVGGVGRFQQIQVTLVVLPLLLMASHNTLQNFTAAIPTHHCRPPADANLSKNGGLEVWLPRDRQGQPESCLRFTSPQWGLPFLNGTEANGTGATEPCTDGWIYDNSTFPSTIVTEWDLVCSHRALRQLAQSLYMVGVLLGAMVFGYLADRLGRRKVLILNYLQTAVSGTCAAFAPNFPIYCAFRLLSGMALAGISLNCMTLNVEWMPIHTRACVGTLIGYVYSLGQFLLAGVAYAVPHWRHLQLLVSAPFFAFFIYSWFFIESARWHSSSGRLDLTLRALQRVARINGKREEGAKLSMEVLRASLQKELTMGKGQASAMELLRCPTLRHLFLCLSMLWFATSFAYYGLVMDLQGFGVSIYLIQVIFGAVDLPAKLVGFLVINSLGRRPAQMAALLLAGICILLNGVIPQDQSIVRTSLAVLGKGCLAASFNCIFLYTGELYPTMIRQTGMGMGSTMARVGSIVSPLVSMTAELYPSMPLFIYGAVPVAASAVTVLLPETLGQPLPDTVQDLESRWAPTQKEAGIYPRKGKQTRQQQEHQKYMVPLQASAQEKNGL
READOUT_KIND: pIC50
# reply with the number alone; pIC50 is -log10 of concentration in mol/L

Query: May I ask what pIC50 has been recorded for NS(=O)(=O)c1cc(Cl)c(Cl)c(S(N)(=O)=O)c1 [Dichlorphenamide, 4,5-dichloro-1,3-benzenedisulfonamide] ?
Response: 4.75
